assay: first-order primary biodegradation rate constant k (sorption-corrected, fDis-corrected) (d-1); higher = faster biodegradation; conditions: river segment: Greece (EL) A_Contam; incubation temperature 19 °C
observed-property: first-order primary biodegradation rate constant k

[1] O=C(O)Cc1ccccc1Nc1c(Cl)cccc1Cl [Diclofenac]
[2] CCCCCCCCCCN [Decylamine]
[3] NS(=O)(=O)c1cc(C(=O)O)c(NCc2ccco2)cc1Cl [Furosemide]
[4] CC(C(=O)O)c1cccc(C(=O)c2ccccc2)c1 (stereo unspecified) [Ketoprofen]
Incoming: Reorder: first-order primary biodegradation rate constant k, max to min. List each label, following the requested order.
Outgoing: 2, 4, 3, 1

* * *

test: first-order primary biodegradation rate constant k (sorption-corrected, fDis-corrected) (d-1); higher = faster biodegradation; conditions: river segment: Spain (ES) L_Contam; incubation temperature 24 °C
observed-property: first-order primary biodegradation rate constant k

>>> meas_value("NC(=O)N1c2ccccc2C=Cc2ccccc21 [Carbamazepine]")
0.711
>>> meas_value("COc1cc(NS(=O)(=O)c2ccc(N)cc2)nc(OC)n1")
1.27
>>> meas_value("CCCCC(=O)N(Cc1ccc(-c2ccccc2-c2nnn[nH]2)cc1)[C@H](C(=O)O)C(C)C")
0.374
>>> meas_value("CC(C)NCC(O)COc1cccc2ccccc12 (configuration not stated)")
0.303
>>> meas_value("Cc1cc(NS(=O)(=O)c2ccc(N)cc2)no1")
1.1

[P] CCCOC(=O)c1ccc(O)cc1
[Q] COc1cc(Cc2cnc(N)nc2N)cc(OC)c1OC
[R] CCN1CCCC1CNC(=O)c1cc(S(=O)(=O)CC)c(N)cc1OC (configuration not stated) [Amisulpride]
Incoming: Rank by first-order primary biodegradation rate constant k (largest to smallest). # format: label list in the order the request specifies
Outgoing: P, Q, R

[a] COCCc1ccc(OCC(O)CNC(C)C)cc1 (configuration not stated)
[b] CC(C)NCC(O)COc1ccc(CC(N)=O)cc1 (configuration not stated)
[c] CC(C(=O)O)c1cccc(C(=O)c2ccccc2)c1 (configuration not stated)
[d] Cc1cc(C)nc(NS(=O)(=O)c2ccc(N)cc2)n1
Incoming: Would you mind ranking these compounds by ascending first-order primary biodegradation rate constant k? The reply should contain the labels ordered as requested.
Outgoing: a, c, b, d
(a: 0.252, c: 0.368, b: 0.568, d: 0.9)

* * *

experiment: first-order primary biodegradation rate constant k (sorption-corrected, fDis-corrected) (d-1); higher = faster biodegradation; settings: river segment: Spain (ES) C_Contam; incubation temperature 24 °C
observed-property: first-order primary biodegradation rate constant k

Please review the following examples before continuing.
>>> meas_value("CCCCC(=O)N(Cc1ccc(-c2ccccc2-c2nnn[nH]2)cc1)[C@H](C(=O)O)C(C)C")
0.194
>>> meas_value("O=C1Nc2ccc(Cl)cc2C(c2ccccc2)=NC1O (centres undefined)")
0.124
>>> meas_value("O=[N+]([O-])/N=C1\\NCCN1Cc1ccc(Cl)nc1")
0.0128

[P] NS(=O)(=O)c1cc(C(=O)O)c(NCc2ccco2)cc1Cl [Furosemide]
[Q] CCOC(=O)C1CC(=O)C(=C(O)C2CC2)C(=O)C1 (centres undefined)
[R] Nc1nc(NC2CC2)c2ncn([C@H]3C=C[C@@H](CO)C3)c2n1
Incoming: Rank entries according to their first-order primary biodegradation rate constant k, from the largest number down. A complete answer lists every label in the requested sequence.
Outgoing: R, P, Q
(R: 0.639, P: 0.149, Q: 0.0822)

* * *

assay: first-order primary biodegradation rate constant k (sorption-corrected, fDis-corrected) (d-1); higher = faster biodegradation; settings: river segment: Switzerland (CH) C_Contam; incubation temperature 17 °C
observed-property: first-order primary biodegradation rate constant k

These recorded examples may help you get a feel for the data.
>>> meas_value("O=S(=O)(O)NC1CCCCC1 [Cyclamate]")
0.205
>>> meas_value("Cc1ccc(C(C)NC(=O)[C@@H](NC(=O)OC(C)C)C(C)C)cc1 (stereo partly specified)")
0.0585
>>> meas_value("CC(C)NCC(O)COc1ccc(CC(N)=O)cc1 (stereo unspecified)")
0.114
>>> meas_value("CCOC(=O)C1CC(=O)C(=C(O)C2CC2)C(=O)C1 (stereo unspecified)")
0.0493
>>> meas_value("COc1ccc(NS(=O)(=O)c2ccc(N)cc2)nn1")
0.0233
>>> meas_value("CC(C)NCC(O)c1ccc(NS(C)(=O)=O)cc1 (stereo unspecified)")
0.0406
>>> meas_value("CNC(=C[N+](=O)[O-])NCCSCc1ccc(CN(C)C)o1")
0.639
>>> meas_value("NC(=O)c1cn(Cc2c(F)cccc2F)nn1 [Rufinamide]")
0.44
>>> meas_value("COCCc1ccc(OCC(O)CNC(C)C)cc1 (stereo unspecified)")
0.177
>>> meas_value("COc1cc(Cc2cnc(N)nc2N)cc(OC)c1OC")
1.11

[a] CCN1CCCC1CNC(=O)c1cc(S(=O)(=O)CC)c(N)cc1OC (stereo unspecified) [Amisulpride]
[b] COC(=O)c1ccc(O)cc1
Incoming: Select one: a or b . Criterion: greater recorded first-order primary biodegradation rate constant k. Label of pick, please.
Outgoing: b

[I] CN(C)CCN1C(=O)c2ccccc2N(C)c2ccccc21 [Dibenzepin]
[II] CC(C)(Oc1ccc(CCNC(=O)c2ccc(Cl)cc2)cc1)C(=O)O [Bezafibrate]
Incoming: Hi, I'm comparing two records. Which one has the lower first-order primary biodegradation rate constant k, I or II ? Choose, then provide that item's label.
Outgoing: I
(I: 0.0239, II: 0.382)

* * *

assay: first-order primary biodegradation rate constant k (sorption-corrected, fDis-corrected) (d-1); higher = faster biodegradation; details: river segment: Switzerland (CH) U_Contam; incubation temperature 17 °C
observed-property: first-order primary biodegradation rate constant k

Illustrative cases are given below, each with its answer.
>>> meas_value("NS(=O)(=O)c1cc(C(=O)O)c(NCc2ccco2)cc1Cl [Furosemide]")
0.155
>>> meas_value("Cn1c(=O)c2c(ncn2C)n(C)c1=O")
0.368
>>> meas_value("O=[N+]([O-])c1ccc(Cc2ccncc2)cc1")
1.95
>>> meas_value("CC(=O)NC[C@H]1CN(c2ccc(N3CCOCC3)c(F)c2)C(=O)O1")
0.0268
>>> meas_value("CCCCC1=NC2(CCCC2)C(=O)N1Cc1ccc(-c2ccccc2-c2nnn[nH]2)cc1")
0.0556

[A] CC(C)(C)C(=O)C(Oc1ccc(Cl)cc1)n1ccnc1 (stereo not given)
[B] CNC(=C[N+](=O)[O-])NCCSCc1ccc(CN(C)C)o1
[C] CNCCC(Oc1ccc(C(F)(F)F)cc1)c1ccccc1 (stereo not given)
Incoming: // ranking: key=first-order primary biodegradation rate constant k, reverse=True Returns: the labels listed in the requested order.
Outgoing: C, A, B

* * *

test: first-order primary biodegradation rate constant k (sorption-corrected, fDis-corrected) (d-1); higher = faster biodegradation; conditions: river segment: Germany (DE) T_Pris; incubation temperature 24 °C
observed-property: first-order primary biodegradation rate constant k

Use the examples below as a reference point.
>>> meas_value("Cc1ccc(NC(=O)N(C)C)cc1Cl [Chlortoluron]")
0.00289
>>> meas_value("Cc1cc(Cl)ccc1OC(C)C(=O)O (stereo unspecified) [Mecoprop]")
0.0247
>>> meas_value("COc1cccc(C2(O)CCCCC2CN(C)C)c1 (stereo unspecified) [Tramadol]")
0.00925

[I] O=C(NCC1CCCCN1)c1cc(OCC(F)(F)F)ccc1OCC(F)(F)F (stereo unspecified) [Flecainide]
[II] Cc1ccc(C)c(OCCCC(C)(C)C(=O)O)c1 [Gemfibrozil]
[III] CCOC(=O)C1CC(=O)C(=C(O)C2CC2)C(=O)C1 (stereo unspecified) [Trinexapac-ethyl]
Incoming: # sort list by recorded first-order primary biodegradation rate constant k, greatest to least // list labels; follow requested order
Outgoing: II, III, I
(II: 0.133, III: 0.0811, I: 0.0199)

* * *

assay: first-order primary biodegradation rate constant k (sorption-corrected, fDis-corrected) (d-1); higher = faster biodegradation; settings: river segment: Germany (DE) T_Contam; incubation temperature 24 °C
observed-property: first-order primary biodegradation rate constant k

[P] OC(Cn1cncn1)(Cn1cncn1)c1ccc(F)cc1F
[Q] Cc1cccc(Nc2ccccc2C(=O)O)c1C
Incoming: Higher first-order primary biodegradation rate constant k: P or Q ? Identify your pick by its label.
Outgoing: Q

[1] c1ccc([C@H]2CN3CCSC3=N2)cc1
[2] CCCCc1nc(Cl)c(CO)n1Cc1ccc(-c2ccccc2-c2nnn[nH]2)cc1
[3] CC(C)(C#N)c1cc(Cn2cncn2)cc(C(C)(C)C#N)c1
Incoming: Rank entries according to their first-order primary biodegradation rate constant k, from the largest number down. Order the labels as requested and give them as your answer.
Outgoing: 1, 2, 3
(1: 0.512, 2: 0.319, 3: 0.0241)

* * *

assay: first-order primary biodegradation rate constant k (sorption-corrected, fDis-corrected) (d-1); higher = faster biodegradation; conditions: river segment: Germany (DE) T_Pris; incubation temperature 24 °C
Counter-ions that a name gives are not always drawn.
observed-property: first-order primary biodegradation rate constant k

Consider the reported first-order primary biodegradation rate constant k for these compounds:
>>> meas_value("CCc1cccc(CC)c1N(COC)C(=O)CCl")
0.105
>>> meas_value("CCNc1nc(Cl)nc(NC(C)C)n1")
0.025

[I] CCOC(=O)CC(O)(CC(=O)OCC)C(=O)OCC [Triethyl citrate]
[II] COCCc1ccc(OCC(O)CNC(C)C)cc1 (stereo unspecified)
Incoming: From the items above, decide which of I and II has the lower first-order primary biodegradation rate constant k reading. When you have decided, please share the label of that item.
Outgoing: I
(I: 0.0369, II: 0.165)

[A] CC(C)(Oc1ccc(Cl)cc1)C(=O)O
[B] CN(C)C(=O)Nc1ccc(Cl)c(Cl)c1
[C] Cn1c(=O)c2c(ncn2C)n(C)c1=O
[D] CNC(=C[N+](=O)[O-])NCCSCc1ccc(CN(C)C)o1
Incoming: Order the records so the highest first-order primary biodegradation rate constant k appears first and the lowest last. Submit the labels in the order that the ranking request calls for.
Outgoing: D, C, B, A

Hey, just so you know, these numbers are from the supplement of paper PMC11562712.
